- targetSystem: IKKε (Homo sapiens, UniProt Q14164)
- Construct: His-tag; made in house; host or cells: Sf9 insect cells
- Sequence (Q14164 whole entry): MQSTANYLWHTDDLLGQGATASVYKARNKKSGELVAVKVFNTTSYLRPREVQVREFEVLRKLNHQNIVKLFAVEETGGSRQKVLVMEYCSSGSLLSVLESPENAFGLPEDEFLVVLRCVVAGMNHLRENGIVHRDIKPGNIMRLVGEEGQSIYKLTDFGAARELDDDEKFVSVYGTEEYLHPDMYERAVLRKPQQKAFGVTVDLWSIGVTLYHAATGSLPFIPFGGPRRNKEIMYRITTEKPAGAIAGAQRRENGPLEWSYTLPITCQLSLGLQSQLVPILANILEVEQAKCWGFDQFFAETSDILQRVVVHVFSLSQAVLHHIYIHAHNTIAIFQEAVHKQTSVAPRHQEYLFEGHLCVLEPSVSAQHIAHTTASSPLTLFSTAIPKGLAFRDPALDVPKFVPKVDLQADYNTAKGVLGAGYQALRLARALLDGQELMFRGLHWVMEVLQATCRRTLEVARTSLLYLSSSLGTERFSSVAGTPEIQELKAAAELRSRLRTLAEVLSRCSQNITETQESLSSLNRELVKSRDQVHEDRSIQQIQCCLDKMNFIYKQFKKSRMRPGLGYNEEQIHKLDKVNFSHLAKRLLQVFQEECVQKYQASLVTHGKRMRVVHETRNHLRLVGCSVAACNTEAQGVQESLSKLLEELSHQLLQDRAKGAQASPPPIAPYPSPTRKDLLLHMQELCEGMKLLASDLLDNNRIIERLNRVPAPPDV
- testMethodNotes: In-vitro IKKε kinase assay ([γ33]ATP filter-plate)
- Assay type: biochemical
- condition: text bins; read-out: IC50 for inhibition of the kinase activity of IKKε
- Method: IKKε enzyme was produced as a His-tag fusion in Sf9 cells and used at a final concentration of […]. TBK1 enzyme was produced as a His-tag fusion in Sf9 cells and used at a final concentration of 0.1 μg/ml. […] After air drying, scintillant (PerkinElmer, Waltham, Mass.) was added and the plates were read on a PerkinElmer TopCount NXT instrument. […]
Entries and their measured IC50 follow.
observable: IC50

> print(dat)
                                    compound  endpointvalue
 1  COc1cc(Nc2nccc(-c3ccc(OC(C)C)c(C#N)c3)n2)cc(OC)c1 [Example 272]     5 to 50 nM
 2  N#Cc1cc(-c2ccnc(Nc3cccc(CN4CCCC4)c3)n2)ccc1OC1CCOCC1 [compound 542]         < 5 nM
 3  N#Cc1cccc(-c2ccnc(Nc3ccc4[nH]ncc4c3)n2)c1 [compound 387]     5 to 50 nM
 4  CC(C)C(=O)Nc1ccc(-c2ccnc(Nc3ccc(CCO)cc3)n2)cc1C#N [compound 464]     5 to 50 nM
 5  COCCNC(=O)c1ccc(Nc2nccc(-c3ccc(OCC(C)C)c(C#N)c3)n2)cc1 [compound 565]         < 5 nM
 6  COc1ccc(-c2ccnc(Nc3cccc(S(=O)(=O)NCCO)c3)n2)cc1C#N [compound 309]   50 to 500 nM
 7  COc1ccc(-c2ccnc(Nc3cc(CN4CCNC(=O)C4)c(OC)c(OC)c3)n2)cc1C#N [Example 110]     5 to 50 nM
 8  COc1ccc(-c2ccnc(Nc3ccc(CN(C)C)cc3)n2)cc1C#N [Example 45]   50 to 500 nM
 9  N#Cc1cc(-c2ccnc(Nc3ccc(N4CCN(CCO)CC4)cc3)n2)ccc1OCC1CC1 [compound 439]         < 5 nM
10  CC(C)C(=O)Nc1ccc(-c2ccnc(Nc3cccc(CCN4CCOCC4)c3)n2)cc1C#N [compound 466]     5 to 50 nM
11  N#Cc1cc(-c2ccnc(Nc3ccc(CS(=O)(=O)N4CCCC4)cc3)n2)ccc1OC1CCOCC1 [compound 403]         < 5 nM
12  N#Cc1cc(-c2ccnc(Nc3ccc(N4CCOCC4)cc3)n2)ccc1OC1CCN(S(N)(=O)=O)CC1 [Example 80]         < 5 nM
13  CNS(=O)(=O)Cc1ccc(Nc2nccc(-c3ccc(OCC4CC4)c(C#N)c3)n2)cc1 [compound 644]         < 5 nM
14  N#Cc1cc(-c2ccnc(Nc3ccc(S(=O)(=O)Nc4nccs4)cc3)n2)ccc1OC1CCOCC1 [compound 575]         < 5 nM
15  COc1cc(Nc2nccc(-c3ccc(OC4CCOCC4)c(C#N)c3)n2)ccc1OCCOCCNS(=O)(=O)N1CCN(C)CC1 [Example 27]         < 5 nM
16  N#Cc1cc(-c2ccnc(Nc3cccc(CN4CCC(O)C4)c3)n2)ccc1OC1CCOCC1 (stereo not shown) [compound 561]         < 5 nM
